// provenance: ChEMBL document CHEMBL1268894

test system: Staphylococcus aureus; experiment: Antimicrobial activity against Staphylococcus aureus 1146; type: functional
Collected MIC values appear next to each entry.
Observable: MIC

[
  {
    "Chemical structure": "CCO[C@@H]1[C@@H](O)[C@H]2OCO[C@H]2[C@H](O)[C@@H]1NC(=O)/C(C)=C/c1cc(F)c(OCCCF)cc1F",
    "Target entity": "Staphylococcus aureus",
    "Recorded value": "8 µg/mL"
  },
  {
    "Chemical structure": "C/C(=C\\c1cc(F)c(OCCCF)cc1F)C(=O)N[C@H]1[C@@H](O)[C@@H]2OCO[C@@H]2[C@H](O)[C@H]1OCC1CC1",
    "Target entity": "Staphylococcus aureus",
    "Recorded value": "> 64 µg/mL"
  },
  {
    "Chemical structure": "CCCO[C@@H]1[C@@H](O)[C@H]2OCO[C@H]2[C@H](O)[C@@H]1NC(=O)/C(C)=C/c1cc(F)c(OCCCF)cc1F",
    "Target entity": "Staphylococcus aureus",
    "Recorded value": "> 64 µg/mL"
  }
]
